// provenance: patent US9879004B2

Entries and their EC50 values follow.
molecular target: mGluR4 (HEK293T-hmGluR4 cells) (Homo sapiens, UniProt Q14833); construct: host or cells: HEK293T; experiment: HEK-293 mGluR4 cells cAMP assay with EC20 L-Glutamate (HTRF); assay type: cell-based; settings: positive allosteric activity at EC20 L-Glutamate, 10 μM Forskolin, cAMP HTRF readout, read-out: hrmGluR4/HEK293T-hmGluR4 (EC50)
Sequence (Q14833 33-912): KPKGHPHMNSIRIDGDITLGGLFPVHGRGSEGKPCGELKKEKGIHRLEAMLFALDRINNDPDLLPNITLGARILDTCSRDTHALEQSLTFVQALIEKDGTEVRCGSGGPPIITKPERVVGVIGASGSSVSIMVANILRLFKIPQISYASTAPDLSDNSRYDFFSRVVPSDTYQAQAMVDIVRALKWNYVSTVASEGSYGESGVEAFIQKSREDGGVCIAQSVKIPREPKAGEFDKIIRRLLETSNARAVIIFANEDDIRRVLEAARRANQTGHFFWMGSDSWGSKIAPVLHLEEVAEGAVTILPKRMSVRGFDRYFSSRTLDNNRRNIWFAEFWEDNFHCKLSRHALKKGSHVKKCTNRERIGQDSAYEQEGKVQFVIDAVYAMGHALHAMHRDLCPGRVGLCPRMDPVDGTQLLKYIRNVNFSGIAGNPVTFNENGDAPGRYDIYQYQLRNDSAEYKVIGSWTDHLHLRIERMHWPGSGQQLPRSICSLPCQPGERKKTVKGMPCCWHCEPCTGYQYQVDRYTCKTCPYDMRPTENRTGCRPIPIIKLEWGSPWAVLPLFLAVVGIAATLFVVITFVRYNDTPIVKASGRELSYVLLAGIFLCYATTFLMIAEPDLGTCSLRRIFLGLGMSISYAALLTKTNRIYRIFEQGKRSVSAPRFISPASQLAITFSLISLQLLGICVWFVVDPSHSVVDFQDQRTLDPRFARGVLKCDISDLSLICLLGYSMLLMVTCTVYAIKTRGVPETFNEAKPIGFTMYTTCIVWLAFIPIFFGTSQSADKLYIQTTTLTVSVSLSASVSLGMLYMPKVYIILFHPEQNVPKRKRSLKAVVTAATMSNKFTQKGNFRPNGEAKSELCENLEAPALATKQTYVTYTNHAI

Worked examples, 4 compounds total:
smiles structure | val
Fc1ccc(C#Cc2ccnc3ccccc23)cc1F | < 1 µM
C(#Cc1ccnc2ccccc12)c1cccs1 | 1 to 10 µM
Fc1cccc(C#Cc2ccnc3ccccc23)c1 | < 1 µM
C(#Cc1ccnc2ccccc12)c1ccccc1 | < 1 µM

Now consider the entry below.
Task: # get_value(readout='EC50', item= `Fc1ccccc1C#Cc1ccnc2[nH]ccc12` )
Output: 1 to 10 µM

* * *

Target: mGluR4 (HEK293T-hmGluR4 cells) (Homo sapiens, UniProt Q14833)
Experiment: HEK-293 mGluR4 cells cAMP assay with EC20 L-Glutamate (HTRF)
Conditions: positive allosteric activity at EC20 L-Glutamate, 10 μM Forskolin, cAMP HTRF readout, read-out: hrmGluR4/HEK293T-hmGluR4 (EC50)
Procedure: HEK-293 mGluR4 cells cAMP assay with EC20 L-Glutamate Using mGluR4 suspension cell format, 10 μM Forskolin (final conc.) used to induce the production of cAMP. Test the positive allosteric activity of the compounds of the invention at EC20 (2.3 μM for mGluR4 and 4.3 μM for mGluR6) L-Glutamate, cAMP dymanic2 kit is intended for the direct quantitative determination of cAMP and its principle is based on HTRF technology. […]
pEC50: −log10 of the molar value.
Entries and their pEC50 values follow.

Worked examples, 2 molecules total:
smiles structure | val
Fc1ccc(C#Cc2ccnc3ccccc23)cc1 | > 6.00
C(#Cc1ccnc2ccccc12)c1ccsc1 | > 6.00

Task: # get_value(readout='pEC50', item= `Clc1cccc(C#Cc2ccnc3ccccc23)c1` )
Output: 5.00 to 6.00

Task: Item: `Fc1ccccc1C#Cc1ccnc2ccccc12`
Output: 5.00 to 6.00
